- System: MRP1 cells, doxorubicin viability shift, 10 uM compound
- procedureDetails: viability protection against doxorubicin, MRP-1 line – cell-based, doxorubicin EC50 shift, dose response (AID 844)
Active and inactive are the calls of the source. How the calls were made is not given here.
attributeMeasured: fold increase in Dox EC50

Which fold increase in Dox EC50 is listed for CC(=O)Nc1nc(C)c(Oc2ccc(Cl)cc2Cl)c(=O)[nH]1 ?
0.74 (inactive)

Which fold increase in Dox EC50 is listed for COc1ccc(N2C(=O)C(CC(=O)Nc3ccc(F)cc3)N(CCc3cccs3)C2=O)cc1 (stereo not given) ?
0.81 (inactive)

Which fold increase in Dox EC50 is listed for CCN(CC)C(=O)C(=O)c1c(-c2ccccc2)[nH]c2ccccc12 ?
2.22

Which fold increase in Dox EC50 is listed for COc1ccc(Cl)cc1NC(=O)CSc1nnc(COc2ccccc2)n1N ?
0.86 (inactive)

Which fold increase in Dox EC50 is listed for N=C(N)SCc1nc2ccccn2c1Br ?
0.28 (inactive)

====

- Tested on: MRP1 cells, doxorubicin viability shift, 10 uM compound
- procedureDetails: viability protection against doxorubicin, MRP-1 line – cell-based, doxorubicin EC50 shift, dose response (AID 844)
Answer each item with its documented fold increase in Dox EC50.
Enter a number only.

Which fold increase in Dox EC50 is listed for COc1ccc(NC(=O)COC(=O)c2c3c(nc4ccccc24)CCCC3)cc1Cl ?
0.68

Which fold increase in Dox EC50 is listed for CCSc1nnc(-c2ccc(C)cc2)c2ccccc12 ?
0.61

Which fold increase in Dox EC50 is listed for COC(=O)CCc1c(C)[nH]c(C(=O)OCc2ccccc2)c1C ?
0.85

====

Answer each item with its documented fold increase in Dox EC50.
- Tested on: MRP1 cells, doxorubicin viability shift, 10 uM compound
- procedureDetails: viability protection against doxorubicin, MRP-1 line – cell-based, doxorubicin EC50 shift, dose response (AID 844)
Activity calls are given as the source filed them. The rule behind the calls is not given here.

Which fold increase in Dox EC50 is listed for Cc1ccc(CCNC(=O)C2CCCN2S(=O)(=O)c2ccc3c(c2)CCC(=O)N3)cc1 (stereo not given) ?
0.64 (inactive)

Which fold increase in Dox EC50 is listed for CCc1nnc(NC(=O)C2CCCN2S(=O)(=O)c2ccc(C)cc2)s1 (stereo not given) ?
1.04 (inactive)

Which fold increase in Dox EC50 is listed for CCCNC(=O)c1oc2ccc3c(c2c1C)C(=O)CC(C)(C)O3 ?
0.84 (inactive)

Which fold increase in Dox EC50 is listed for COc1ccc(/C=C2/N=C(SC3CCOC3=O)N(c3cccc(OC)c3)C2=O)cc1 (stereo not given) ?
0.68 (inactive)

Which fold increase in Dox EC50 is listed for Cc1n[nH]c(=S)n(/N=C/c2ccccn2)c1=O ?
0.91 (inactive)

Which fold increase in Dox EC50 is listed for Cc1cc2nc(-c3cccc(NC(=O)c4ccc(Br)o4)c3C)oc2cc1C ?
1.03 (inactive)

Which fold increase in Dox EC50 is listed for O=C(c1ccco1)N1CCN=C1SCc1ccc(F)cc1 ?
0.87 (inactive)

Which fold increase in Dox EC50 is listed for N=C(N)SCc1ccccn1 ?
0.54 (inactive)

Which fold increase in Dox EC50 is listed for CCOc1ccc2nc(SCC#N)c(C#N)cc2c1 ?
0.3 (inactive)

Which fold increase in Dox EC50 is listed for OCCN=C1CCCc2c1[nH]c1ccc(Br)cc21 ?
0.84 (inactive)

Which fold increase in Dox EC50 is listed for Cc1noc(/C=C/N(C)C)c1S(=O)(=O)N1CCCC(C(=O)NC2CCCCC2)C1 (stereo not given) ?
0.97 (inactive)

Which fold increase in Dox EC50 is listed for COc1cccc(/C=N/N2C(=O)CSC2=S)c1O ?
1.31 (inactive)

Which fold increase in Dox EC50 is listed for CC(=O)c1ccc(NC(=O)CN2C(=O)/C(=C/C(C)=C/c3ccccc3)SC2=S)cc1 ?
0.62 (inactive)

Which fold increase in Dox EC50 is listed for O=C(Nc1cccc(Cl)c1)c1c(O)c2c(n(Cc3ccccc3)c1=O)CCCC2 ?
1.14 (inactive)

Which fold increase in Dox EC50 is listed for O=[N+]([O-])c1ccc(O)c(/C=N/n2cnc3ccccc32)c1 ?
0.67 (inactive)
